measured_target: human DNA-PK (Homo sapiens)
Construct: The frozen HeLa cell pellet was thawed at 37° C. and immediately centrifuged; endogenous in cells; host or cells: HeLa S3 cells (ATCC CCL-2.2); Endogenous enzyme purified via S100-2 fraction, Q-Sepharose FF and SP-Sepharose FF (fraction IV)
assay_text: Standard DNA-PK assay (p53 peptide phosphorylation)
Type: biochemical
settings: read-out: IC50 (nM) DNA-PK Assay
Response field label takes condition met when IC50 is strictly below 1000 nM and condition not met in all other cases.

Nc1cc(N2CCNCC2)ccc1[N+](=O)[O-] ... condition not met

Exercise: Threshold test, IC50 < 1000 nM: O=C(O)c1ccc(N2CCOCC2)cc1O [Example 29, 2-Hydroxy-4-morpholin-4-yl-benzoic Acid]
Solution: condition met

Exercise: Repeat with `O=[N+]([O-])c1ccc(N2CCOCC2)cc1O`
Solution: condition not met

Exercise: Repeat with `COc1cc(N2CCOCC2)ccc1C=O`
Solution: condition not met

Exercise: Repeat with O=Cc1ccc(N2CCOCC2)cc1O [Example 32, 2-Hydroxy-4-morpholin-4-yl-benzaldehyde]
Solution: condition met

====

measured_target: human DNA-PK (Homo sapiens, UniProt P78527)
Construct: The frozen HeLa cell pellet was thawed at 37° C. and immediately centrifuged; endogenous in cells; host or cells: HeLa S3 cells (ATCC CCL-2.2); Endogenous enzyme purified via S100-2 fraction, Q-Sepharose FF and SP-Sepharose FF (fraction IV)
assay_text: Standard DNA-PK assay (p53 peptide phosphorylation)
Type: biochemical
settings: read-out: IC50 (nM) DNA-PK Assay
Protocol: Reactions were carried out at room temperature. Reactions were started by addition of ATP and stopped by application to phosphocellulose paper. Reaction products spotted onto phosphocellulose paper were washed five times with a total volume of at least 250 mL 10% acetic acid or 150 mM phosphoric acid. The paper was air dried and radioactivity was determined in a Beckman LS6000IC scintillation counter.
quantity: IC50 (nM)
Number only, in nM; omit the unit.

CCC(=O)c1ccc(N2CCOCC2)cc1O ... 120
COC(=O)c1ccc(N2CCOCC2)cc1O ... 500
CC(=O)c1ccc(N2CCOCC2)c(Cl)c1O ... 14000
O/N=C/c1ccc(N2CCOCC2)cc1O ... 1000
CC(=O)c1ccc(N2CCOCC2)c(F)c1O ... 240

Exercise: IC50 for `CC(C)CC(=O)c1ccc(N2CCOCC2)cc1O` ?
Solution: 150

Exercise: Repeat with `O=C(c1ccc(N2CCOCC2)cc1O)C(F)(F)F`
Solution: 250

Exercise: Repeat with `CC(=O)c1ccc(N2CCOCC2)cc1O`
Solution: 120

====

measured_target: human DNA-PK (Homo sapiens, UniProt P78527)
Construct: The frozen HeLa cell pellet was thawed at 37° C. and immediately centrifuged; endogenous in cells; host or cells: HeLa S3 cells (ATCC CCL-2.2); Endogenous enzyme purified via S100-2 fraction, Q-Sepharose FF and SP-Sepharose FF (fraction IV)
assay_text: Standard DNA-PK assay (p53 peptide phosphorylation)
Format: biochemical
settings: standard kinase reaction; read-out: IC50, enzyme activity inhibited
quantity: IC50 (nM)
Number only, in nM; omit the unit.

Exercise: IC50 for C[C@@]12c3ccc4c(c3C(=O)c3occ(c31)C(=O)C[C@H]2O)CCC4=O [demethoxyviridin, reference compound] ?
Solution: 5
